System: Schistosoma mansoni
experimental.details: Percent [3H]uridine incorporation relative to control at 50 ug/mL against hycanthone-sensitive schistosomes (% worms surviving in culture)
Format: functional
measurement.kind: Incorporation (%)
Answers are plain numbers, in %.

>>> observed_result("Cc1ccc(S(=O)(=O)N/N=C/c2cc3c(cc2[N+](=O)[O-])NC(CNC(C)C)CC3)cc1 (centres undefined)")
60

# batch: return Incorporation for each of the 2 molecules below
1. Cc1cc(C)c(S(=O)(=O)N/N=C/c2cc3c(cc2[N+](=O)[O-])NC(CNC(C)C)CC3)c(C)c1 (centres undefined)
2. CC(C)NCC1CCc2cc(CO)c([N+](=O)[O-])cc2N1 (centres undefined)

24
14

Checklist item: Incorporation tested on Schistosoma mansoni, entry CNC(=O)OCc1cc2c(cc1[N+](=O)[O-])NC(CNC(C)C)CC2 (centres undefined) , value?
22
